# assay.overview: qHTS of pediatric cancer cell lines to identify multiple opportunities for drug repurposing: Primary screen for Rh30 cells (AID 1347107); further: nearly all actives have a fitted effect of over 75% in size
# particulars: Rh30 rhabdomyosarcoma viability, CellTiter-Glo luminescence, 48 h; series mostly up to 46 µM
Results filed as inconclusive are left out. Calls of active or inactive are those of the source. The call rests on the fitted dose curve; in most records, active means well fitted cell-killing curve with a large enough effect; inconclusive means small, poorly fitted or top-dose-only effect; inactive means no such curve, though single readings can be large or run the other way.
Outcomes: active, inactive

molecule | label
O=C(NCC1CCOCC1)c1cnc(Nc2ccc(Cl)cc2Cl)nc1C(F)(F)F | inactive
O=C(O)COc1ccccc1 | inactive
O=C(O)CNC(=O)c1c(O)c2ccccc2n(Cc2ccccc2)c1=O | inactive
C[C@H]([C@H](O)CCC(C)(C)O)[C@H]1CC[C@@]2(O)C3=CC(=O)[C@@H]4C[C@@H](O)[C@@H](O)C[C@]4(C)[C@@H]3CC[C@]12C | inactive
O=[N+]([O-])/N=C1\NCCN1Cc1ccc(Cl)nc1 | inactive
CCC(=O)OC1CCC2C3CCC4=CC(=O)CC[C@@]4(C)C3CC[C@]12C (stereo not given in full) | inactive
CCC(=O)O[C@@H]1C=C2CCC3C(CCC4(C)C3CC[C@@H]4OC(=O)CC)C2CC1 (stereo not given in full) | inactive
CC(C)N[C@@H]1CCn2c(=O)[nH]c3cccc(c32)[C@@H]1O | active
Oc1ccc2c3c1O[C@H]1[C@@H](O)C=C[C@H]4[C@@H](C2)NCC[C@@]341 | inactive
OCCCBr | inactive
